The reported measurements were obtained from patent US20260070917A1.

Target: CDK2 (Homo sapiens)
Construct: host or cells: HEK293-CDK2-Hibit
Experiment: HiBit Assay Protocol for CDK2 (HIBIT protein quantification, degradation)
Type: cell-based
Conditions: HEK293-CDK2-Hibit cells, compound treatment for 6 hours
CDK2 HIBIT Protein Quantification Maximum by entry:
# value in %; strip the unit string

The cases that follow already have their CDK2 HIBIT Protein Quantification Maximum on record.
[
  {
    "compound": "CC1CCCC1N1C(=O)C2(CC2)c2cnc(NC3CCN(S(=O)(=O)N4CC5C4CCN5C(=O)CCCCCc4ccc5c(c4)n(C)c(=O)n5C4CCC(=O)NC4=O)CC3)nc21 (stereo not shown)",
    "measValue": 29
  },
  {
    "compound": "CC1CCCC1N1C(=O)C2(CC2)c2cnc(NC3CCN(S(=O)(=O)N4CC5(CCCN(c6cccc(-c7cccc8c7n(C)c(=O)n8C7CCC(=O)NC7=O)c6)C5)C4)CC3)nc21 (stereo not shown)",
    "measValue": 61
  },
  {
    "compound": "C[C@@H]1CN(c2ccc3c(N4CCC(=O)NC4=O)nn(C)c3c2)CCN1[C@H](C)c1cccc(S(=O)(=O)N2CC[C@H](Nc3ncc4c(n3)N([C@@H]3CCC[C@@H](O)C3)C(=O)C43CC3)[C@H](F)C2)c1",
    "measValue": 90
  },
  {
    "compound": "CC1CCCC1N1C(=O)C2(CC2)c2cnc(NC3CCN(S(=O)(=O)N4CC5(CCCN(C(=O)CCCCCCCCCc6ccc7c(c6)n(C)c(=O)n7C6CCC(=O)NC6=O)C5)C4)CC3)nc21 (stereo not shown)",
    "measValue": 44
  }
]

Would you kindly look at the next entry?
INPUT: Quick check: CDK2 HIBIT Protein Quantification Maximum on CDK2 (Homo sapiens), item CC1CCCC1N1C(=O)C2(CC2)c2cnc(NC3CCN(S(=O)(=O)C4CCN(C(=O)CCCCCc5ccc6c(c5)n(C)c(=O)n6C5CCC(=O)NC5=O)C4)CC3)nc21 (stereo not shown) ?
OUTPUT: 50

====

Target: CCNE1 (Homo sapiens)
Construct: host or cells: HEK293-CCNE1-Hibit
Sequence (P24864 whole entry): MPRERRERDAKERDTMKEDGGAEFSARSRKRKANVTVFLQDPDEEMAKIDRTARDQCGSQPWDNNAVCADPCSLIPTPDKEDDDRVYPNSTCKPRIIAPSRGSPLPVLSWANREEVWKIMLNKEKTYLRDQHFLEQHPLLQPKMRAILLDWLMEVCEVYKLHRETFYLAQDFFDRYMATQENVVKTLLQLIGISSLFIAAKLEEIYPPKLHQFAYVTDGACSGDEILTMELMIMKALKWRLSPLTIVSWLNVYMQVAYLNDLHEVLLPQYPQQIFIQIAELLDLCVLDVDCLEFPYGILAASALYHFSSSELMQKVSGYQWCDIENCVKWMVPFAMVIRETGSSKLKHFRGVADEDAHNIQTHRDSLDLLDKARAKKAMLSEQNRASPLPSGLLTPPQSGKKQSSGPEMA
Test: HiBit Assay Protocol for CCNE1 (HIBIT protein quantification, degradation)
Type: cell-based
Conditions: HEK293-CCNE1-Hibit cells, compound treatment for 6 hours
propertyMeasured: CCNE1 HIBIT Protein Quantification Maximum (%)
# value in %; strip the unit string

The cases that follow already have their CCNE1 HIBIT Protein Quantification Maximum on record.
[
  {
    "compound": "CC1CN(C(C)c2cccc(S(=O)(=O)N3CC[C@H](Nc4ncc5c(n4)N([C@@H]4CCC[C@@H](O)C4)C(=O)C54CC4)[C@H](F)C3)c2)CCC1c1ccc2c(N3CCC(=O)NC3=O)nn(C)c2c1 (stereo partly drawn)",
    "measValue": 47
  },
  {
    "compound": "CC1CCCC1N1C(=O)C2(CC2)c2cnc(NC3CCN(S(=O)(=O)N4CC5(CCN(C(=O)CCCc6cccc7c6n(C)c(=O)n7C6CCC(=O)NC6=O)CC5)C4)CC3)nc21 (stereo not drawn)",
    "measValue": 37
  }
]

INPUT: Sample CC1CCCC1N1C(=O)C2(CC2)c2cnc(NC3CCN(S(=O)(=O)N4CC5(CCCCN5C(=O)CCCc5cccc6c5n(C)c(=O)n6C5CCC(=O)NC5=O)C4)CC3)nc21 (stereo not drawn) — what was its CCNE1 HIBIT Protein Quantification Maximum?
OUTPUT: 8
